Molecular target: human indoleamine 2,3-dioxygenase 1 (hIDO1) (Homo sapiens, UniProt P14902)
Construct: His tag (N); purchased BPS Bioscience, San Diego, Calif., USA; host or cells: E. coli
Sequence (P14902 whole entry): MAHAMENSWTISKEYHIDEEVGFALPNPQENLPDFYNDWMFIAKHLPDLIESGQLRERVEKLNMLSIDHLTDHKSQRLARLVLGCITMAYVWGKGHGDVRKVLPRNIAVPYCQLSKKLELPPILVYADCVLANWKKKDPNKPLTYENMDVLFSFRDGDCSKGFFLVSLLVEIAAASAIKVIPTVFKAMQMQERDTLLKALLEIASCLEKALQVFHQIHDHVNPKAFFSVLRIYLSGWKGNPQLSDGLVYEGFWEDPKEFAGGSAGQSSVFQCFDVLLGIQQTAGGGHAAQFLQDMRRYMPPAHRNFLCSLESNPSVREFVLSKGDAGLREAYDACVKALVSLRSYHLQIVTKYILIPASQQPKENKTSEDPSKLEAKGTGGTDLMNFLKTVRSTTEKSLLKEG
Assay: In-vitro human indoleamine 2,3-dioxygenase 1 (IDO1) enzyme assay
Format: biochemical
Conditions: hIDO1 enzyme at 10.0 μM concentration
Value Type: inhibition at 10 µM

Guide cases for inhibition at 10 µM, answers given:
CC1=C(c2ccccc2)C(CC(=O)c2ccc(NC(=O)Cc3ccccc3F)cc2)n2cncc21 (centres unmarked)    ≥ 50%
CC1=C(c2ccccc2)C(CC(=O)C2CCC(C(=O)N3CCC(=O)CC3)CC2)n2cncc21 (centres unmarked)    ≥ 50%
Cc1ccc(S(=O)(=O)N2CCC3=C(C2)C(CC(=O)c2ccccc2)n2cncc23)cc1 (centres unmarked)    ≤ 50%
O=C(CC1C(c2ccccc2)=C(c2ccccc2)c2cncn21)C1CCCCC1 (centres unmarked)    ≤ 50%
OC(CC1C2=C(CCCC2)c2cncn21)c1ccccc1 (centres unmarked)    ≤ 50%
CC1=C(c2ccccc2)C(CC(=O)C2CCOCC2)n2cncc21 (centres unmarked)    ≥ 50%
CC1=C(c2ccccc2)C(CC(O)C2CCN(c3ccccn3)CC2)n2cncc21 (centres unmarked)    ≥ 50%

Moving on to another compound below.
IN: Given the compound CC1=C(c2ccccc2)C(C[C@H](O)C2CCC(C(=O)NC3CCCCC3)CC2)n2cncc21 (some centres unmarked) , write its reported inhibition at 10 µM.
OUT: ≥ 50%

====

Molecular target: human indoleamine 2,3-dioxygenase 1 (hIDO1) (Homo sapiens, UniProt P14902)
Construct: His tag (N); purchased BPS Bioscience, San Diego, Calif., USA; host or cells: E. coli
Test: In-vitro human indoleamine 2,3-dioxygenase 1 (IDO1) enzyme assay
Format: biochemical
Conditions: hIDO1 enzyme at 10.0 μM concentration
molecules and their reported inhibition at 10 µM

Guide cases for inhibition at 10 µM, answers given:
CC1=C(c2ccccc2)C(CC(=O)C2CCC(C(=O)Nc3ccccc3)CC2)n2cncc21 (centres unmarked)    ≥ 50%
CC1=C(c2ccccc2)C(CC(=O)c2ccc(C(=O)Nc3ccc(F)cc3F)cc2)n2cncc21 (centres unmarked)    ≥ 50%
CCCNC(=O)CC1C(c2ccccc2)=C(C)c2cncn21 (centres unmarked)    ≤ 50%
CC1=C(c2ccccc2)C(CC(=O)c2cccc3ccccc23)n2cncc21 (centres unmarked)    ≥ 50%
COc1ccc(C2=C(C)c3cncn3C2CC(=O)C2CCCCC2)cc1 (centres unmarked)    ≤ 50%

IN: Given the molecule CC1=C(c2ccccc2)C(CC(=O)c2ccsc2)n2cncc21 (centres unmarked) , write its reported inhibition at 10 µM.
OUT: ≥ 50%

IN: Given the molecule CCOC(=O)C1CCC([C@@H](O)CC2C(c3ccccc3)=C(C)c3cncn32)CC1 (stereo in doubt) , write its reported inhibition at 10 µM.
OUT: ≥ 50%

IN: Given the molecule CC1=C(c2cccc(F)c2)C(CC(O)c2ccccc2)n2cncc21 (centres unmarked) , write its reported inhibition at 10 µM.
OUT: ≥ 50%

IN: Given the molecule CC1=C(c2ccccc2)C(CC(O)C2CCN(C(=O)Cc3ccccc3F)CC2)n2cncc21 (centres unmarked) , write its reported inhibition at 10 µM.
OUT: ≥ 50%

IN: Given the molecule CC1=C(c2ccccc2)C(CC(=O)c2ccc(-c3ccc(C)cc3)cc2)n2cncc21 (centres unmarked) , write its reported inhibition at 10 µM.
OUT: ≥ 50%

IN: Given the molecule CC1=C(c2ccccc2)C(CC(O)C2CCC(=NO)CC2)n2cncc21 (centres unmarked) , write its reported inhibition at 10 µM.
OUT: ≥ 50%

IN: Given the molecule CC1=C(c2ccccc2)C(C[C@H](O)C2CCC(C(=O)N3CCC(O)CC3)CC2)n2cncc21 (some centres unmarked) , write its reported inhibition at 10 µM.
OUT: ≥ 50%

IN: Given the molecule CC1=C(c2ccccc2)C(CC(=O)C23CC4CC(CC(C4)C2)C3)n2cncc21 (centres unmarked) , write its reported inhibition at 10 µM.
OUT: ≥ 50%

====

molecules and their reported inhibition at 1 µM
Molecular target: human indoleamine 2,3-dioxygenase 1 (hIDO1) (Homo sapiens)
Construct: His tag (N); purchased BPS Bioscience, San Diego, Calif., USA; host or cells: E. coli
Experiment: In-vitro human indoleamine 2,3-dioxygenase 1 (IDO1) enzyme assay
Type: biochemical
Details: hIDO1 enzyme at 1.0 μM concentration
Text: In-vitro human indoleamine 2,3-dioxygenase 1 (IDO1) enzyme assay: In the in-vitro human indoleamine 2,3-dioxygenase 1 (hIDO1) enzyme assay for screening inhibitor compounds, hIDO1 with an N-terminal histidine tag expressed and purified from E. coli (BPS Bioscience, San Diego, Calif., USA) was used. All other materials were procured from Sigma-Aldrich, St. Louis, Mo., USA. […]

Guide cases for inhibition at 1 µM, answers given:
CC1=C(c2ccccc2)C(CC(=O)c2ccc(C(=O)O)cc2)n2cncc21 (stereo not shown)    ≤ 50%
CC1=C(c2ccccc2)C(CC(=O)c2ccc(-c3ccccc3)cc2)n2cncc21 (single isomer, unassigned; isomer-i) [Example 42]    ≥ 50%

IN: Given the molecule CC1=C(c2ccccc2)C(CC(O)C2CCN(C(=O)Nc3ccccc3)CC2)n2cncc21 (stereo not shown) , write its reported inhibition at 1 µM.
OUT: ≥ 50%

IN: Given the molecule CC1=C(c2ccccc2)C(CC(=O)c2ccc(F)cc2)n2cncc21 (stereo not shown) , write its reported inhibition at 1 µM.
OUT: ≥ 50%

IN: Given the molecule CC1=C(c2ccccc2)C(CC(O)C2CCC(F)(F)CC2)n2cncc21 (stereo not shown) , write its reported inhibition at 1 µM.
OUT: ≥ 50%

IN: Given the molecule CC1=C(c2ccccc2)C(CC(=O)C2CCC(C(=O)O)CC2)n2cncc21 (stereo not shown) , write its reported inhibition at 1 µM.
OUT: ≤ 50%

IN: Given the molecule CC1=C(c2ccccc2)C(CC(=O)c2ccc(NC(=O)Cc3ccccc3F)cc2)n2cncc21 (stereo not shown) , write its reported inhibition at 1 µM.
OUT: ≥ 50%

====

compounds and their reported inhibition at 1 µM
Target: human indoleamine 2,3-dioxygenase 1 (hIDO1) (Homo sapiens, UniProt P14902)
Construct: His tag (N); purchased BPS Bioscience, San Diego, Calif., USA; host or cells: E. coli
Experiment: In-vitro human indoleamine 2,3-dioxygenase 1 (IDO1) enzyme assay
Format: biochemical
Conditions: hIDO1 enzyme at 1.0 μM concentration

Guide cases for inhibition at 1 µM, answers given:
CC1=C(c2ccccc2)C(CC(=O)C2CCN(C(=O)c3ccccc3)CC2)n2cncc21 (stereo not shown) [Example 142]    ≤ 50%
CC1=C(c2ccccc2)C(CC(=O)c2ccc(C)cc2)n2cncc21 (stereo not shown) [Example 27]    ≤ 50%
CC1=C(c2ccccc2)C(CC(=O)C2CCN(C(=O)Cc3ccccc3F)CC2)n2cncc21 (stereo not shown) [Example 138]    ≥ 50%

Moving on to another compound below.
IN: Given the compound CC1=C(c2ccccc2)C(CC(O)C2CCN(C(=O)c3ccnc(C)c3)CC2)n2cncc21 (stereo not shown) [Example 164] , write its reported inhibition at 1 µM.
OUT: ≤ 50%

====

Target: human indoleamine 2,3-dioxygenase 1 (hIDO1) (Homo sapiens)
Construct: His tag (N); purchased BPS Bioscience, San Diego, Calif., USA; host or cells: E. coli
Experiment: In-vitro human indoleamine 2,3-dioxygenase 1 (IDO1) enzyme assay
Type: biochemical
Conditions: hIDO1 enzyme at 1.0 μM concentration
From the text: In-vitro human indoleamine 2,3-dioxygenase 1 (IDO1) enzyme assay: In the in-vitro human indoleamine 2,3-dioxygenase 1 (hIDO1) enzyme assay for screening inhibitor compounds, hIDO1 with an N-terminal histidine tag expressed and purified from E. coli (BPS Bioscience, San Diego, Calif., USA) was used. All other materials were procured from Sigma-Aldrich, St. Louis, Mo., USA. […]
Value Type: inhibition at 1 µM

IN: Using human indoleamine 2,3-dioxygenase 1 (hIDO1) (Homo sapiens) as the test system, report measured inhibition at 1 µM of CC1=C(c2ccccc2F)C(CC(=O)C2CCCCC2)n2cncc21 (stereo not shown) .
OUT: ≤ 50%

IN: Using human indoleamine 2,3-dioxygenase 1 (hIDO1) (Homo sapiens) as the test system, report measured inhibition at 1 µM of CC1=C(c2ccccc2)C(CC(=O)c2ccc(-c3ccc(O)cc3)cc2)n2cncc21 (stereo not shown) .
OUT: ≥ 50%

IN: Using human indoleamine 2,3-dioxygenase 1 (hIDO1) (Homo sapiens) as the test system, report measured inhibition at 1 µM of CC1=C(c2ccccc2)C(CC(O)C23CC4CC(CC(C4)C2)C3)n2cncc21 (stereo not shown) .
OUT: ≥ 50%

IN: Using human indoleamine 2,3-dioxygenase 1 (hIDO1) (Homo sapiens) as the test system, report measured inhibition at 1 µM of CC1=C(c2ccccc2)C(CC(O)c2ccc(C(=O)Nc3ccc(Cl)cc3)cc2)n2cncc21 (stereo not shown) .
OUT: ≤ 50%

====

Target: human indoleamine 2,3-dioxygenase 1 (hIDO1) (Homo sapiens, UniProt P14902)
Construct: His tag (N); purchased BPS Bioscience, San Diego, Calif., USA; host or cells: E. coli
Assay: In-vitro human indoleamine 2,3-dioxygenase 1 (IDO1) enzyme assay
Assay type: biochemical
Settings: hIDO1 enzyme
Value Type: IC50

Guide cases for IC50, answers given:
CCOC(=O)N1CCC(C(O)CC2C(c3ccccc3)=C(C)c3cncn32)CC1 (stereo not shown)    < 500 nM
CC1=C(c2ccccc2)C(CC(=O)c2ccc(Oc3ccccc3F)cc2)n2cncc21 (stereo not shown)    < 500 nM
CC1=C(c2ccccc2)C(CC(=O)c2cccc(Cl)c2)n2cncc21 (stereo not shown)    < 500 nM
CC1=C(c2ccccc2)C(CC(=O)c2ccc(-c3ccc(C)s3)cc2)n2cncc21 (stereo not shown)    < 500 nM
CC1=C(c2ccccc2)C(CC(O)C2CCC(O)CC2)n2cncc21 (stereo not shown) [Example 111]    > 500 nM
CC1=C(c2ccccc2)C(C[C@H](O)C2CCC(C(=O)Nc3ccccc3)CC2)n2cncc21 (stereo partly shown)    < 500 nM
CC1=C(c2ccccc2)C(CC(=O)c2ccc(-c3cccnc3)cc2)n2cncc21 (stereo not shown)    < 500 nM
CC1=C(c2ccccc2)C(C[C@H](O)C2CCC(C(=O)OC(C)(C)C)CC2)n2cncc21 (stereo in doubt)    < 500 nM

IN: Given the compound CC1=C(c2ccccc2)C(CC(=O)c2ccc(F)c(Cl)c2)n2cncc21 (stereo not shown) , write its reported IC50.
OUT: < 500 nM

IN: Given the compound CC1=C(c2ccccc2)C(CC(=O)c2ccc(-c3ccccc3)cc2)n2cncc21 (stereo not shown) , write its reported IC50.
OUT: < 500 nM

IN: Given the compound CC1=C(c2ccccc2)C(CC(=O)c2ccc(Cl)cc2)n2cncc21 (stereo not shown) , write its reported IC50.
OUT: < 500 nM

IN: Given the compound CC1=C(c2ccccc2)C(CC(=O)c2ccc(-c3ccc(O)cc3)cc2)n2cncc21 (stereo not shown) , write its reported IC50.
OUT: < 500 nM

IN: Given the compound CC1=C(c2ccccc2)C(CC(O)c2ccccc2)n2cncc21 (stereo not shown) , write its reported IC50.
OUT: > 500 nM

IN: Given the compound CC1=C(c2ccccc2)C(CC(=O)c2ccc3c(c2)OCO3)n2cncc21 (stereo not shown) , write its reported IC50.
OUT: < 500 nM

IN: Given the compound CC1=C(c2ccccc2)C(CC(O)C2CCC(=NO)CC2)n2cncc21 (stereo not shown) , write its reported IC50.
OUT: < 500 nM

IN: Given the compound CC1=C(c2ccccc2)C(CC(O)C2CCCCC2)n2cncc21 (stereo not shown) , write its reported IC50.
OUT: < 500 nM

IN: Given the compound COC(=O)[C@H]1CC[C@@H]([C@@H](O)CC2C(c3ccccc3)=C(C)c3cncn32)CC1 (stereo partly shown) , write its reported IC50.
OUT: < 500 nM

IN: Given the compound CC1=C(c2ccccc2)C(CC(O)C2CCN(C(=O)Nc3ccccn3)CC2)n2cncc21 (stereo not shown) , write its reported IC50.
OUT: < 500 nM

IN: Given the compound CC1=C(c2ccccc2)C(CC(=O)C2CCCCC2)n2cncc21 (stereo not shown) , write its reported IC50.
OUT: > 500 nM
